Assay: Inhibition of PCSK9 transcriptional activity in human HepG2 cells by luciferase reporter based assay
measuredParameter: IC50 (µM)

1: CC(C)(C)OC(=O)N1CCN(Cc2ccc3nc(NC(=O)c4ccc(S(=O)(=O)NCCC#N)cc4)sc3c2)CC1
2: CCOC(=O)c1ccc2nc(N3CCN(NC(=O)c4ccc(Cl)c(Cl)c4)CC3)sc2c1
Problem: Given the entries 1 and 2 , determine which has the lower reported IC50. // return label of chosen record
1
